Target: SARS-CoV-2 spike protein (SARS-CoV-2), P0DTC2
Conditions: remark: other sources report otherwise
Would you mind telling me the reported kon of each entry?
Give the number; M⁻¹ s⁻¹ is assumed, so skip it.

Reported kon of antibody 413 (antibody, V domains shown) VH: EVQLVESGGGLIQPGGSLRLSCAASGFTVSGNYMNWVRQAPGKGLEWVSVIYSGGSTYYADSVKGRFTISRANSKNTLYLQMNSLRAEDTAVYYCASTSLVRGLIILYYYGMDVWGQGTTVTVSS VL: QSALTQPASVSGSPGQSITISCTGTSSDVGGYNYVSWYQQHPGKAPKLMIYEVSNRPSGVSNRFSGSKSGNTASLTISGLQAEDEADYYCSSYTSSSTLVFGGGTKLTVL : 296000

Reported kon of antibody 472 (antibody, V domains shown) VH: EVQLVESGGGLIQPGGSLRLSCAASGFTVSSNYMSWVRQAPGKGLEWVSVIYSGGTTHYADSVKGRFTISRDNSKNTLYLQMNSLRAEDTAVYYCANYGMDVWGQGTTVTVSS VL: SYELTQPSSVSVSPGQTARITCSGDVLAKKYARWFQQKPGQAPVLVIYKDSERPSGIPERFSGSSSGTTVTLTISGAQVEDEADYYCYSAADKVFGGGTKLTVL : 21300

Reported kon of antibody 436 (antibody, V domains shown) VH: QVQVVESGGGVVQPGRSLRLSCAASGFTFSSYAMHWVRQAPGKGLEWVAVISYDGNNEYYVDPVKGRFTISRDNSKNTLYLQMNSLRAEDTALYYCATSREAIVVGGILDYWGQGTLVTVSS VL: DIQMTQSPSSLSASVGDRVTITCQASHDINNFLNWYQQKPGQAPKLLIYDASNLETGVPSRFSGSGSGTDFTFTISSLHPEDVATYYCQQYDGLPRYVTFGQGTKLEIR : 18200

Reported kon of antibody 389 (antibody, V domains shown) VH: QVQLVESGGGVVQPGRSLRLSCAASGFTFSSYAMHWVRQAPGKGLEWVAVISYDGSNKYYADSVKGRFTISRDNSKNTLYLQMNSLRAEDTAVYYCASQGRMYVRGVDYGVYWGQGTLVTVSS VL: NFMLTQPHSVSESPGKTVTISCTGSSGSIASNYVQWYQQRPGSAPTTVIYEDNQRPSGVPDRFSGSIDSSSNSASLTISGLKTEDEADYYCQSYDSSKISHAVFGGGTQLTVL : 450000

Reported kon of antibody 464 (antibody, V domains shown) VH: QVQLVQSGAEVKKPGASVKVSCKVSGYTLTELSMHWVRQAPGKGLEWMGGFDPEDGETIYAQKFQGRVTMTEDTSTDTAYMELSSLRSEDTAVYYCATARAFGVANWFDPWGQGTLVTVSS VL: QSVLTQPPSASGTPGQRVTISCSGSSSNIGSNYVYWYQQLPGTAPKLLIYRNNQRPSGVPDRFSGSKSGTSASLAISGLRSEDEADYYCAAWDDSLSGLYVFGTGTKVTVL : 112000
